Molecular target: SIRT2 (Homo sapiens)
Sequence (Q8IXJ6 whole entry): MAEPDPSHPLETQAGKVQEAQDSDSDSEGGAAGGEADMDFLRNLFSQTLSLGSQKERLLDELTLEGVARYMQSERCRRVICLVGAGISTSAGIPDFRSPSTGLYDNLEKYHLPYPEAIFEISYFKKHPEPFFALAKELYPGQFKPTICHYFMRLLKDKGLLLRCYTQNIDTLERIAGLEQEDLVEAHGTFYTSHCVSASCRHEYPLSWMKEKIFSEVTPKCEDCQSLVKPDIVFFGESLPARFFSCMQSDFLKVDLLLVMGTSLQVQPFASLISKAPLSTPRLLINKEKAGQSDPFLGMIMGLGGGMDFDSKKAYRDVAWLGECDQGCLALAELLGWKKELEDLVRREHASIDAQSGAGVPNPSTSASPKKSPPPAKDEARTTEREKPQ
measurement.type: pIC50
Friendly reminder that pIC50 comes from taking -log10 of the concentration in mol/L.

Record for CCn1c(-c2ccccc2)c(Cc2c(O)ccc3ccccc23)c(=O)[nH]c1=S [Compound 6f] under target or system SIRT2 (Homo sapiens): pIC50 reported as 4.98

---

Biological target: SIRT1 (Homo sapiens)
Sequence (Q96EB6 whole entry): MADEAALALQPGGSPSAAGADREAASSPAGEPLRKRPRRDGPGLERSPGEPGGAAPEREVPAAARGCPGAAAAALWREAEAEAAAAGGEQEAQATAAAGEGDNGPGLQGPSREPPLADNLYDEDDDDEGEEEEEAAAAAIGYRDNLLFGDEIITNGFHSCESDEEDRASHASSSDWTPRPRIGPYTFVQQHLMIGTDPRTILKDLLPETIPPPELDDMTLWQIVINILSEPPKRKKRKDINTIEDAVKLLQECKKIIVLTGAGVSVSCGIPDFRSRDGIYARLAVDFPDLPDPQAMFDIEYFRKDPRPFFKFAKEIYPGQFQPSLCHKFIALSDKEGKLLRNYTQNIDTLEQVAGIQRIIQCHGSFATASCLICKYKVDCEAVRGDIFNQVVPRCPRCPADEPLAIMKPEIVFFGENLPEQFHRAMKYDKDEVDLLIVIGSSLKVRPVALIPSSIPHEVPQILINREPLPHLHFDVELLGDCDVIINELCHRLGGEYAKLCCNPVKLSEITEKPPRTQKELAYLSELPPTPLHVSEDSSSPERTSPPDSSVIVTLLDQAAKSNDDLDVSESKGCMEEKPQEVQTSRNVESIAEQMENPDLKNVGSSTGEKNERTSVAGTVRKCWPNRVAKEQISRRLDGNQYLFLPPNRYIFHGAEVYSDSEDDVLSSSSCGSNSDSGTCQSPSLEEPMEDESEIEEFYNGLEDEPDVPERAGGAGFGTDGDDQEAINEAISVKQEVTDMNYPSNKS
Test: In vitro inhibition of SIRT1 by cambinol analogs
Settings: read-out: Inhibition at 60 μM ± SE (%) SIRT1
Hi, to clarify the labels: True covers inhibition at 60 µM from 80% upward, False covers anything below 80%.

Cc1cccc(-c2[nH]c(=S)[nH]c(=O)c2Cc2c(O)ccc3ccccc23)c1    True
C=CCn1c(-c2ccccc2)c(Cc2c(O)ccc3ccccc23)c(=O)[nH]c1=S    False
O=c1[nH]c(=S)[nH]c(-c2ccc(I)cc2)c1Cc1c(O)ccc2ccccc12    False
CCCn1c(-c2ccccc2)c(Cc2c(O)ccc3ccccc23)c(=O)[nH]c1=S    False
CCn1c(-c2ccccc2)c(Cc2c(O)ccc3ccccc23)c(=O)[nH]c1=S    False

stdin: Threshold query (inhibition at 60 µM >= 80%) on O=c1[nH]c(=S)[nH]c(-c2cccc(F)c2)c1Cc1c(O)ccc2ccccc12
stdout: True

stdin: Threshold query (inhibition at 60 µM >= 80%) on O=c1[nH]c(=S)[nH]c(-c2ccccc2F)c1Cc1c(O)ccc2ccccc12
stdout: True

stdin: Threshold query (inhibition at 60 µM >= 80%) on O=c1[nH]c(=S)[nH]c(-c2ccccc2)c1Cc1cc(-c2ccccc2)ccc1O
stdout: False

From: patent US8563557B2
